Test system: A549
assay remarks: NCI tumour cell line growth inhibition, 48 h
Activity calls are given as the source filed them. No stated cut-off is given here; in the data, active = GI50 up to about 1.1 µM and inactive = higher.
measurement type: GI50

[[record]]
compound = "COC1C(O)=C2C(=O)OC(C)(O)/C=C/C=C\\C=C/C=C/C(c3ccccc3)NC(=O)/C=C/C=C/C=C/C=C/C2(C)C1O (centres undefined)"
measurement_type = "GI50"
val = "0.00105 µM (active)"

[[record]]
compound = "O=C1c2ccccc2-c2c1c(-c1ccc(O)cc1O)nc1ccc3ccccc3c21"
measurement_type = "GI50"
val = "> 100 µM (inactive)"


State recorded GI50 for all listed compounds.
1. O=C1Nc2ccccc2/C1=C\c1c(Cl)n(-c2ccccc2)c2ccccc12
2. C=CCC1=CC2(OC)C(=O)C(OC)(OC)C1C1C(OC)(OC)C(=O)C(OC)=CC12CC=C (centres undefined)
3. COc1ccc(N2C(=O)C3c4[nH]c5ccc(C)cc5c4C4CCC(C(C)(C)C)CC4C3C2=O)cc1 (centres undefined)
4. COC(C)(C)OCCN1CCN(CCN2C3=C(C=C(C(C)=O)C3)Sc3ccccc32)CC1

OUTPUT:
1. 3.52 µM (inactive)
2. > 100 µM (inactive)
3. 6.9 µM (inactive)
4. 32.6 µM (inactive)

State recorded GI50 for all listed compounds.
1. O=C(NCCO)Nc1c(C(F)(F)F)cc(-c2ccccc2)[nH]c1=O
2. O=C1OC(Cl)C(N=P(c2ccccc2)(c2ccccc2)c2ccccc2)=C1Cl (centres undefined)
3. CCC1(CC)C(=O)NN(C(=O)c2ccc(Cl)cc2)C1=O

OUTPUT:
> 100 µM (inactive)
> 100 µM (inactive)
> 100 µM (inactive)

###

Tested on: SR
assay remarks: NCI tumour cell line growth inhibition, 48 h
Calls of active or inactive are those of the source. No stated cut-off is given here; in the data, active = GI50 up to about 1.1 µM and inactive = higher.
Outcome (select one): y for active, n for inactive

[[record]]
compound = "CN(Cc1nc2c(N)nc(N)nc2nc1N)c1ccc(C(=O)NC(CCC(=O)O)C(=O)O)cc1 (stereo not given)"
study_target = "SR"
assigned_category = "y"


INPUT: Which outcome was assigned to N=C1N(c2ccccc2)C(=O)C23CCCC2C13N1CCOCC1 (stereo not given) in this test?
OUTPUT: n

INPUT: Which outcome was assigned to "O[C@H]1[C@@H]2OC[C@@H](O)[C@H](OCc3ccccc3)[C@@](COCc3ccccc3)(O2)[C@@H]1OCc1ccccc1" in this test?
OUTPUT: n

INPUT: Which outcome was assigned to CCc1ccccc1NC(=O)C(=O)C(C#N)c1c(Cl)cccc1Cl (stereo not given) in this test?
OUTPUT: n

INPUT: Which outcome was assigned to "COC(C)(C)[C@@H]1CCCN1C1=C(C)C(=O)OC1" in this test?
OUTPUT: n

INPUT: Which outcome was assigned to "O=S1(=O)C[C@H](NCc2ccccc2)[C@H](NCc2ccccc2)C1" in this test?
OUTPUT: n

INPUT: Which outcome was assigned to "COc1ccc2/c(=C/c3ccc(N(C)C)cc3)c3cc(-c4ccccc4)[n+](C)n3c2c1" in this test?
OUTPUT: y

###

Test system: KM12
assay remarks: NCI tumour cell line growth inhibition, 48 h
Calls of active or inactive are those of the source. Rule as the data show it: active = GI50 up to about 1.1 µM and inactive = higher.
Outcome (select one): yes for active, no for inactive

[[record]]
compound = "COC1C(O)=C2C(=O)OC(C)(O)/C=C/C=C\\C=C/C=C/C(c3ccccc3)NC(=O)/C=C/C=C/C=C/C=C/C2(C)C1O (stereo not given)"
assigned_category = "yes"

[[record]]
compound = "CCOC(=O)Nc1c(C#N)[n+]([O-])c2cc(Cl)c(Cl)cc2[n+]1[O-]"
assigned_category = "no"


INPUT: Which outcome was assigned to "N=C(N)N/N=C/c1cc(Cl)cc(Cl)c1O" in this test?
OUTPUT: no

INPUT: Which outcome was assigned to COc1ccccc1NC(=O)C(=O)C(C#N)CC(C)(C)C=O (stereo not given) in this test?
OUTPUT: no

INPUT: Which outcome was assigned to O=C(O)C(Cc1c[nH]c2ccccc12)C(=O)NO (stereo not given) in this test?
OUTPUT: no

###

Can you tell me GI50 for the items I'm about to list?
Tested on: NCI/ADR-RES
assay remarks: NCI tumour cell line growth inhibition, 48 h
The source made the active and inactive calls. No stated cut-off is given here; in the data, active = GI50 up to about 1.1 µM and inactive = higher.

In the examples that follow, each entry is paired with its recorded GI50.
[[record]]
compound = "CCOC(=O)Nc1c(C#N)[n+]([O-])c2cc(Cl)c(Cl)cc2[n+]1[O-]"
measurement_type = "GI50"
val = "20.7 µM (inactive)"

[[record]]
compound = "O=c1c2cc([N+](=O)[O-])ccc2[nH]n1Cc1ccccn1"
measurement_type = "GI50"
val = "> 100 µM (inactive)"

[[record]]
compound = "CC1(C)CC(=O)C(CC2C(=O)c3ccccc3C2=O)C(=O)C1C(=O)C(=O)Nc1cccc2ccc(O)cc12 (centres undefined)"
measurement_type = "GI50"
val = "54.1 µM (inactive)"

[[record]]
compound = "C[C@H]1[C@@H](c2ccccc2)O[B-](c2ccccc2)(c2ccccc2)[N+]1(C)C"
measurement_type = "GI50"
val = "76.7 µM (inactive)"

[[record]]
compound = "CC(=O)c1ccccc1NCC(=O)Nn1cnc2ccc(S(=O)(=O)Nc3ccccc3C(C)=O)cc2c1=O"
measurement_type = "GI50"
val = "> 100 µM (inactive)"


State recorded GI50 for all listed compounds.
1. NC1CSc2ccccc2NC1=O (centres undefined)
2. CC(=O)Oc1cc(-c2oc3cc(OC(C)=O)c(C4OC(CO)C(O)C(O)C4O)c(OC(C)=O)c3c(=O)c2O)c(OC(C)=O)cc1O (centres undefined)

OUTPUT:
1. > 100 µM (inactive)
2. > 100 µM (inactive)

State recorded GI50 for all listed compounds.
1. CC(C)C[C@H](NC(=O)[C@H](Cc1cccc2ccccc12)NS(=O)(=O)c1cccc2cccnc12)B(O)O
2. N=C(CCl)NC1CN2CCC1CC2 (centres undefined)

OUTPUT:
1. 2.32 µM (inactive)
2. > 100 µM (inactive)

###

Tested on: SF-295
assay remarks: NCI tumour cell line growth inhibition, 48 h
The source made the active and inactive calls. No stated cut-off is given here; in the data, active = GI50 up to about 1.1 µM and inactive = higher.
Outcome (select one): YES = active, NO = inactive

INPUT: Which outcome was assigned to "Cc1cccc(C(C)(C)C)c1NC(=O)CCl" in this test?
OUTPUT: NO

INPUT: Which outcome was assigned to "O=C(O)CN1CCN2CCCCCN(CC1)CCN(CC(=O)O)CC2" in this test?
OUTPUT: NO

INPUT: Which outcome was assigned to "CN(C)c1ccc(/C=C(\NC(=O)c2ccccc2)c2nc3ccccc3c(=O)o2)cc1" in this test?
OUTPUT: NO

INPUT: Which outcome was assigned to "CCOC(=O)/C(C#N)=C(O)/C(=C/c1ccccc1Cl)NC(=O)c1ccccc1" in this test?
OUTPUT: NO

INPUT: Which outcome was assigned to "Cc1ccc2nc(-c3ccccc3)c(N=O)n2c1" in this test?
OUTPUT: NO

###

Can you tell me GI50 for the items I'm about to list?
System: A498
assay remarks: NCI tumour cell line growth inhibition, 48 h
Calls of active or inactive are those of the source. Cut-off read from the data, not from the text of the source: active = GI50 up to about 1.1 µM and inactive = higher.

In the examples that follow, each entry is paired with its recorded GI50.
[[record]]
compound = "O[C@H]1[C@@H]2OC[C@@H](O)[C@H](OCc3ccccc3)[C@@](COCc3ccccc3)(O2)[C@@H]1OCc1ccccc1"
study_target = "A498"
val = "17.5 µM (inactive)"

[[record]]
compound = "CC(C)=CCC/C(C)=C/CC/C(C)=C/CC/C(C=O)=C/CC/C(C)=C\\CC/C(C)=C/CC/C(C)=C/CC/C(C)=C/CC1=CC(=O)C=CC1=O"
study_target = "A498"
val = "> 100 µM (inactive)"

[[record]]
compound = "O=C1C=Cc2c(-c3ccccc3)oc3cccc1c23"
study_target = "A498"
val = "15.4 µM (inactive)"


State recorded GI50 for all listed compounds.
1. O=C1C2C3C=C4c5ccccc5N(c5ccccc5)C4(C2C(=O)N1c1ccccc1)C1C(=O)N(c2ccccc2)C(=O)C31 (centres undefined)
2. CCOC(=O)c1csc(NC(=O)CN2CCCCC2)n1

OUTPUT:
["2.34 µM (inactive)", "> 100 µM (inactive)"]

###

Test system: MOLT-4
assay remarks: NCI tumour cell line growth inhibition, 48 h
Structures can show the parent of a compound that is named as a salt. Calls of active or inactive are those of the source. Rule as the data show it: active = GI50 up to about 1.1 µM and inactive = higher.
Outcome (select one): true (1) for active, false (0) for inactive

Below, 10 molecules whose answers are already recorded.
[[record]]
molecule = "O=C(Nc1ccccc1)c1cc2cc(CCl)ccc2oc1=O"
assigned_category = "false (0)"

[[record]]
molecule = "O=C(Cc1nc2ccccc2s1)C(=O)Nc1ccccc1C(F)(F)F"
assigned_category = "false (0)"

[[record]]
molecule = "N=C(N)NCCCC(NC(=O)c1c2ccccc2nc2ccccc12)C(=O)O (stereo not drawn)"
assigned_category = "false (0)"

[[record]]
molecule = "Cc1[nH]c2ccccc2c1C1Cc2ccccc2N1C(=O)/C=C\\C(=O)O (stereo not drawn)"
assigned_category = "false (0)"

[[record]]
molecule = "CCCCc1oc2ccccc2c1C(=O)c1cc(I)c(OCCN(CC)CC)c(I)c1 [AMIODARONE HYDROCHLORIDE]"
assigned_category = "false (0)"

[[record]]
molecule = "O=c1c2ccccc2c(=O)n2n1CC=CC2"
assigned_category = "false (0)"

[[record]]
molecule = "O=[N+]([O-])c1ccc2occ3c2c1CCC3"
assigned_category = "false (0)"

[[record]]
molecule = "C=C=C(C)[Si](C)(C)C"
assigned_category = "false (0)"

[[record]]
molecule = "CC1=C2C(=O)OCC23C=COC3(C)O1 (stereo not drawn)"
assigned_category = "false (0)"

[[record]]
molecule = "CCCCCCCCNC(=S)N/C=C1\\C(=O)Oc2ccccc2C1=O"
assigned_category = "false (0)"


INPUT: Which outcome was assigned to "O=c1c2ccccc2nc(N/N=C/c2ccc([N+](=O)[O-])cc2)n1-c1ccccc1" in this test?
OUTPUT: false (0)

INPUT: Which outcome was assigned to "COc1cc(/C=C/c2cccnc2)cc(OC)c1OC" in this test?
OUTPUT: false (0)
